These measurements were taken from PubChem BioAssay AID1919001.

tested on: 699152-130-R-J1-PDC complex spheroid growth; assay: Anticancer human tumor 699152-130-R-J1-PDC patient-derived pancreatic carcinoma cell line growth inhibition [AhR]; conditions: second compound 1 µM; first compound 3.16 µM; hits give low values;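 also: compound exposure lasted 7 days after spheroids had grown for 3 days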
Would you mind telling me the reported viability, T/C of each entry?
One number for each entry, in %.

COc1ccc([C@@H](O)c2cc(-c3ncnc4cc(N5CCOCC5)ccc34)c(F)cc2Cl)nn1 + Cc1ccccc1N=Nc1ccc(NC(=O)c2ccnn2C)c(C)c1: 61.1

List viability, T/C for every entry below, keeping the order given.
1. CC1COCCN1c1cc(C2(S(C)(=N)=O)CC2)nc(-c2ccnc3[nH]ccc23)n1 (configuration not stated) + Cc1cncc(-c2nc(NCCc3c[nH]c4ccccc34)c3ncn(C(C)C)c3n2)c1
2. COc1cc(C2c3cc4c(cc3C(OC3OC5COC(C)OC5C(O)C3O)C3COC(=O)C23)OCO4)cc(OC)c1O (configuration not stated) + Cc1ccccc1N=Nc1ccc(NC(=O)c2ccnn2C)c(C)c1

Output:
[123, 60.6]

List viability, T/C for every entry below, keeping the order given.
1. Nc1ccn(C2OC(CO)C(O)C2(F)F)c(=O)n1 (configuration not stated) + CC(CO)NC(=O)c1cc(-c2ccc(Cl)cc2)nn(-c2cnn(C)c2)c1=O
2. COc1cc(Nc2ncc3c(n2)-c2ccc(Cl)cc2C(c2c(F)cccc2OC)=NC3)ccc1C(=O)O + Cc1ccccc1N=Nc1ccc(NC(=O)c2ccnn2C)c(C)c1
3. CC1(C)CCC(CN2CCN(c3ccc(C(=O)NS(=O)(=O)c4ccc(NCC5CCOCC5)c([N+](=O)[O-])c4)c(Oc4cnc5[nH]ccc5c4)c3)CC2)=C(c2ccc(Cl)cc2)C1 + Cc1cncc(-c2nc(NCCc3c[nH]c4ccccc34)c3ncn(C(C)C)c3n2)c1
4. CC1COCCN1c1cc(C2(S(C)(=N)=O)CC2)nc(-c2ccnc3[nH]ccc23)n1 (configuration not stated) + CC(CO)NC(=O)c1cc(-c2ccc(Cl)cc2)nn(-c2cnn(C)c2)c1=O

Output:
[56.7, 56.9, 120, 84]
